# System: IgG2a production
# METHOD SUMMARY: Test 4 (comparison): inhibition of IgG2a production
# Type: in vivo, Balb/c mouse
# CONDITION DESCRIPTION: Mus musculus, po; 100 mg/kg orally once a day, Day 1 to Day 10; spleen cells, DNP-BSA 5 μg/ml, 24 hours; read-out: Inhibition rate of IgG2a production
Counter-ions that a name gives are not always drawn.
PARAMETER: inhibition at 100 mg/kg (%)
The figure you give is taken to be in %; do not add the unit.

Answered examples (5):
CCCCCC(=O)/C=C/c1cc(OCCCCCC(=O)OC)c(OC)cn1 [Ex. 15] | 4.6
CCOC(=O)CCCCCOc1cc(/C=C/C(=O)c2ccc(OC)c(OC)c2)ncc1OC [Ex. 90, hydrochloride] | 7
COc1cnc(/C=C/C(=O)c2ccccc2OC)cc1OCCCCCC(=O)O [Ex. 105] | -1.8
CCOC(=O)CCCCCOc1cc(/C=C/C(=O)c2ccc(OC)cc2OC)ncc1OC [Ex. 92, hydrochloride] | -6
CCOC(=O)CCCOc1cc(/C=C/C(=O)c2cc(OC)ccc2OC)ncc1OC [Ex. 87, hydrochloride] | -8.1

Exam item: Value wanted: inhibition at 100 mg/kg (IgG2a production) of entry COc1cnc(/C=C/C(=O)c2ccccc2)cc1O [Ex. 19]
Marked response: 0.9

Exam item: Value wanted: inhibition at 100 mg/kg (IgG2a production) of entry CCOC(=O)CCCCCCCOc1cc(/C=C/C(=O)c2ccccc2OC)ncc1OC [Ex. 98, hydrochloride]
Marked response: -4.1

Exam item: Value wanted: inhibition at 100 mg/kg (IgG2a production) of entry CCOC(=O)CCCCCOc1cc(/C=C/C(=O)c2ccsc2)ncc1OC [Ex. 100]
Marked response: -5.1

Exam item: Value wanted: inhibition at 100 mg/kg (IgG2a production) of entry COc1cnc(/C=C/C(=O)c2ccccc2)cc1OC [Ex. 1]
Marked response: 4.6

Exam item: Value wanted: inhibition at 100 mg/kg (IgG2a production) of entry CCOC(=O)CCCCCCOc1cc(/C=C/C(=O)c2ccccc2OC)ncc1OC [Ex. 96, hydrochloride]
Marked response: 8.3

* * *

# Test system: IgE production
# METHOD SUMMARY: Test 4: inhibition of IgE production by spleen cells of orally treated sensitized mice
# Assay type: in vivo, Balb/c mouse
# CONDITION DESCRIPTION: Mus musculus, po, 100 mg/kg orally once a day, Day 1 to Day 10, DNP-BSA 5 μg/ml, 24 hours, read-out: Inhibition rate of IgE production
Where a name gives a salt, the structure may show the parent alone.
Assign YES whenever inhibition at 100 mg/kg does not fall below 30%; assign NO whenever it does.

Before answering, review these 5 worked examples.
CCOC(=O)CCCCCOc1cc(/C=C/C(=O)c2ccc(OC)cc2OC)ncc1OC [Ex. 92, hydrochloride] | YES
CCOC(=O)CCCOc1cc(/C=C/C(=O)c2ccccc2)ncc1OC | NO
CCOC(=O)CCCCCCCOc1cc(/C=C/C(=O)c2ccccc2OC)ncc1OC [Ex. 98, hydrochloride] | YES
CCOC(=O)CCCCCOc1cc(/C=C/C(=O)c2ccc(OC)c(OC)c2)ncc1OC [Ex. 90, hydrochloride] | NO
COc1cnc(/C=C/C(=O)C2CCCCC2)cc1OCCCC(=O)O | NO

Exam item: Is inhibition at 100 mg/kg for CCOC(=O)CCCCCCOc1cc(/C=C/C(=O)c2ccccc2OC)ncc1OC [Ex. 96, hydrochloride] at or above 30%?
Marked response: YES
